# Species on record: Homo sapiens
# assay.details: To identify inhibition of the IFN signalling (Jak-Stat) pathway via expression of an eGFP reporter gene under the control of an IFN-stimulated response element (ISRE) containing MxA promoter.
# Type: functional
# Design: scale not given: direction of the effect not stated beside the values
# assay.context: 30 µM
The threshold is inclusive: Percent Effect of exactly 20% counts as Met; values below receive Not met.

Asked: Does the molecule Cc1ccc(-c2nc(CN3CCc4nn(C)c(=O)cc4C3)no2)cc1 have recorded Percent Effect that is 20% or more?
Given back: Not met

Asked: Please check the record O=S1(=O)C[C@@H]2[C@H](C1)N(Cc1cc(Cl)cc(Cl)c1)CCN2CC1CC1 and state if its Percent Effect is at or above 20%.
Given back: Met

Asked: Determine whether measured Percent Effect meets or exceeds 20% for Cc1ccc(CNCc2nnc3n2CCCC3C(F)(F)F)s1 (stereo unspecified)
Given back: Not met

Asked: Could you verify whether the entry CCN1CC(C(=O)N2CCC(Oc3ccccc3Cl)CC2)CC1=O (stereo unspecified) shows Percent Effect of no less than 20%?
Given back: Met

Asked: Please tell me: is the molecule COc1cccc2c1OCC(CNC(=O)CCCN1CCOCC1)C2 (stereo unspecified) at or over 20% in terms of Percent Effect?
Given back: Not met

Asked: Does Percent Effect meet or surpass 20% for Cc1ccc(-c2cc(CNC(=O)N3CCC(CO)CC3)on2)cc1 ?
Given back: Not met

Asked: Would you say Cc1nn(C)c(Cl)c1C1CCCN1C(=O)c1ccc2c(c1)OCO2 (stereo unspecified) shows Percent Effect at minimum 20%?
Given back: Not met

Asked: Please indicate if the recorded Percent Effect for NC(=O)Nc1cccc(Oc2ccccn2)c1 meets or exceeds 20%.
Given back: Not met

Asked: State whether the measured Percent Effect reaches 20%, counting equality as reaching it, for CC(NC(=O)NCC1(c2ccc(F)cc2)CCC1)c1nncn1C (stereo unspecified)
Given back: Not met

Asked: Hi, just wondering whether Cc1cnc2c(c1NCc1ccncc1)c(=O)n(C)c(=O)n2C shows Percent Effect of 20% or higher.
Given back: Met

Asked: Hello, I need to know if Cc1cnn(C2CCCN(C(=O)c3ccc(N(C)C)nn3)C2)c1 (stereo unspecified) has measured Percent Effect not below 20%. Thanks!
Given back: Met

---

# System: Trypanosoma cruzi
# assay.details: Trypanosoma cruzi phosphomannomutase and mannose-1-phosphate guanylyltransferase assay
# Format: functional
# Design: scale not given: direction of the effect not stated beside the values
# assay.context: 10 µM
readout: Percent Effect

Asked: Would you mind telling me what Percent Effect value was observed for Cc1noc(C)c1CN1C[C@@H]2COC[C@H](C(=O)N3CCCCO3)[C@@H]2C1 ?
Given back: -5.12%

Asked: # Percent Effect lookup, item CC(C(=O)NCc1ccnc(Oc2ccc(F)cc2)c1)n1cncn1 (centres undefined)
Given back: 3.86%

Asked: Consider the compound O=C(CCC1CCCC1)N1CCC(c2ncc3c(n2)CCNC3)CC1 and give its measured Percent Effect.
Given back: 2.57%

Asked: Look up Percent Effect: CC(CN1CCOCC1)NCc1nncn1C1CCCCC1 (centres undefined)
Given back: -5.54%

Asked: Fill in the blank: the reported Percent Effect of Cc1ccc(C(=O)Nc2cn[nH]c2)cc1C is ____.
Given back: 0.188%

Asked: Suppose we examine the compound COCC1CCN(C(=O)c2cccc(S(=O)(=O)NCC3(C)COC3)c2)C1 (centres undefined) ; what Percent Effect value has been reported?
Given back: 1.07%

Asked: Could you share which Percent Effect value was measured for Cc1cn2c(n1)CCC(NC(=O)c1ccc(CS(C)(=O)=O)cc1)C2 (centres undefined) ?
Given back: 7.71%

Asked: Entry O=C(CCc1cccs1)N1CCC(N2CCNC2=O)CC1 : reported Percent Effect = ?
Given back: 3.23%

Asked: Form field: reported Percent Effect of O=C1CC(c2ccc(F)c(F)c2)c2snc(C(=O)O)c2N1 (centres undefined)
Given back: -2.36%

Asked: Sample Cc1nc(CC(=O)N2CCC[C@H]2c2nc(C(C)C)no2)cs1 — what was its Percent Effect?
Given back: 1.26%

Asked: Value lookup for Percent Effect; key = Cc1nc(C2CCCN(C(=O)c3scnc3C)C2)no1 (centres undefined)
Given back: 4.76%

Asked: Look up Percent Effect for this compound: CCC1(CC)Cc2ccccc2-c2nc(CN(C)C)nc(O)c21
Given back: 0.292%

Asked: Which Percent Effect is reported for this compound? O=C(CCn1ccc2cc(Br)ccc21)NCc1ccc(C(=O)O)cc1
Given back: -3.02%

Asked: I am curious: what Percent Effect value has been reported for Cn1ccnc1CNC1CCCN(Cc2noc(C3CC3)n2)C1 (centres undefined) ?
Given back: 2.9%

Asked: Entry CC(C)(C)n1ncc2c1CCCC2NCc1cccc2c1OCO2 (centres undefined) has what Percent Effect?
Given back: -4.41%

Asked: Query: Percent Effect; subject: CC(C)CCN1Cc2c(C(=O)O)ncn2-c2ccccc2S1(=O)=O
Given back: -3.42%

Asked: Bench note: what Percent Effect did CCN1CCN(C(=O)c2cc(C(=O)OC)nn2-c2ccccc2)CC1 show?
Given back: -5.26%

Asked: What does the data say about its Percent Effect? Entry: N#Cc1cccc(S(=O)(=O)N2CCCCC2CCN2CCCC2=O)c1 (centres undefined)
Given back: 4.76%

Asked: Name the recorded Percent Effect for CCn1ccnc1CN1CCOC(CNc2cccnn2)C1 (centres undefined) .
Given back: 1.5%

Asked: GET /values?readout=Percent Effect&item= Cc1nccn1C1CCCN(C(=O)c2ccc(N(C)C)nc2)C1 (centres undefined)
Given back: 6.26%

Asked: Recorded Percent Effect for COCCN(C)C(=O)Nc1ccc2c(ccn2CCOC)c1 , please?
Given back: 6.33%

Asked: Value lookup for Percent Effect; key = CN(CC(N)=O)S(=O)(=O)c1ccc(F)cc1Cl
Given back: -0.794%

Asked: Field request: Percent Effect | item: Cc1cccc(OCCC(=O)NCC(C)(C)C(N)=O)c1
Given back: 1.13%

Asked: Quick one: Percent Effect of CCc1ccc(CNC(=O)N2CCN(Cc3cc(C)no3)CC2)s1 ?
Given back: -9.24%

---

Task for the reader: assign each of the following compounds its reported Percent Effect.
# target.under.test: Ubiquitin-activating enzyme e1, putative (Leishmania donovani (strain BPK282A1))
# assay.details: Leishmania donovani Ubiquitin Activating Enzyme (LdE1)
# Type: functional
# Set-up: scale not given: direction of the effect not stated beside the values
# assay.context: 30 µM
Results with a measured potency or affinity are listed apart.
Your answer should be a plain number; it is taken to be in %.

Asked: Look at this compound and give its reported Percent Effect. Cc1nn(C)c(C)c1C1CCCN1C(=O)c1cc[nH]n1 (configuration not stated)
Given back: 3.8

Asked: What Percent Effect value was documented for this compound, Cc1nc(C)n(CC2CCCN(Cc3nnc(-c4ccco4)o3)C2)n1 (configuration not stated) ?
Given back: 0

Asked: Data request, read-out Percent Effect, for N#Cc1ccnc(N2CCC(c3nccn3Cc3cscn3)CC2)c1
Given back: 13.3

Asked: What value of Percent Effect has been reported for the following compound? CSc1sc(NC(=O)Cc2c(C)nc(C)[nH]c2=O)nc1C
Given back: 7.89

Asked: // lookup Percent Effect for O=C(CN1CCN(CC(O)C2CC2)CC1)NCc1ccc(F)cc1 (configuration not stated)
Given back: 10.4

Asked: What does the record list as Percent Effect for CN1N=C(C(=O)N2CCCC(CCc3c(F)cccc3F)C2)CCC1=O (configuration not stated) ?
Given back: 2.7

Asked: # lookup: Percent Effect of CC(NC(=O)NCCNc1ncccn1)c1cccs1 (configuration not stated)
Given back: 31.2

Asked: Percent Effect lookup needed for c1ccc(CCN2CCN(c3ccc4nncn4n3)CC2)nc1 , thanks.
Given back: 5.2

Asked: What does the record list as Percent Effect for COCC(=O)NCc1cccc(Br)c1 ?
Given back: 18.4

Asked: Which measured Percent Effect value corresponds to CCc1noc(C2CCCCN2C(=O)c2ccoc2C)n1 (configuration not stated) ?
Given back: 4

Asked: # Percent Effect lookup, item Cc1ccc(CN(C)C(=O)CN2CC(n3cccn3)C2)o1
Given back: 2.63

Asked: For the compound Cc1nc(N2CCOCC2)nc2c1CCN(Cc1cccnc1)CC2 , what Percent Effect is on record?
Given back: 0
